- Target: SRTF1 (Pimelobacter simplex)
- Construct: assembled on quantum dots for FRET
- Sequence (A0A0A1DUF2 1-189): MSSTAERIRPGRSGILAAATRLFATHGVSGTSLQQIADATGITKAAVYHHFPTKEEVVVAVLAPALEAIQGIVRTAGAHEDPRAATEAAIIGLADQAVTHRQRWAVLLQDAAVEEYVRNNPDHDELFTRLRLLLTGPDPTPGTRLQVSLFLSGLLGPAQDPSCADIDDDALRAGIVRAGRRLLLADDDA
- Test: QD-TF-FRET, ligand-induced release of Cy5-labelled operator DNA
- Experimental Conditions: sensor 3: QD/TF/DNA ratio 1:1:18, operator with 2 mutated bases in one half of palindrome, HEPES, RT; allosteric
Measure: IC50 (nM)
Express the result in nM but write the number alone.

### Prompt Short answer please: IC50, SRTF1 (Pimelobacter simplex), entry C[C@]12CCC(=O)C=C1CC[C@@H]1[C@@H]2[C@@H](O)C[C@]2(C=O)[C@@H](C(=O)CO)CC[C@@H]12
### Response 312
